- Test system: Nucleic Acid
- EXPERIMENT NOTES: Thermal stabilization of HIV TAR RNA assessed as change in melting temperature at 1:1 ligand to RNA ratio by UV-vis spectrophotometric analysis
- Type: nucleic-acid assay
- CONDITION LABEL: Human immunodeficiency virus
OBSERVABLE: ΔTm (°C)
// note: answer is a bare numeric in °C

Q: Provide one value: measured ΔTm of CN1CCN(c2ccc3nc(-c4ccc(OCc5cn(CCCCCCn6cc(CCCCc7cn(C[C@H]8O[C@@H](O[C@@H]9[C@@H](O)[C@H](N)C[C@H](N)[C@H]9O[C@H]9O[C@H](CN)[C@@H](O)[C@H](O)[C@H]9N)[C@H](O)[C@@H]8O[C@H]8O[C@@H](CN)[C@@H](O)[C@H](O)[C@H]8N)nn7)nn6)nn5)cc4)[nH]c3c2)CC1
Ans: 3.8

Q: Consider the compound CN1CCN(c2ccc3nc(-c4ccc(OCCn5cc(CCc6cn(C[C@H]7O[C@@H](O[C@@H]8[C@@H](O)[C@H](N)C[C@H](N)[C@H]8O[C@H]8O[C@H](CN)[C@@H](O)[C@H](O)[C@H]8N)[C@H](O)[C@@H]7O[C@H]7O[C@@H](CN)[C@@H](O)[C@H](O)[C@H]7N)nn6)nn5)cc4)[nH]c3c2)CC1 and give its recorded ΔTm.
Ans: 3.4

Q: Give me measured ΔTm, please, for this compound: C#CCOc1ccc(-c2nc3ccc(N4CCN(C)CC4)cc3[nH]2)cc1
Ans: 1

Q: Read the entry CN1CCN(c2ccc3nc(-c4ccc(OCc5cn(C[C@H]6O[C@@H](O[C@@H]7[C@@H](O)[C@H](N)C[C@H](N)[C@H]7O[C@H]7O[C@H](CN)[C@@H](O)[C@H](O)[C@H]7N)[C@H](O)[C@@H]6O[C@H]6O[C@@H](CN)[C@@H](O)[C@H](O)[C@H]6N)nn5)cc4)[nH]c3c2)CC1 and write its reported ΔTm.
Ans: 5.6

Q: Output measured ΔTm for this item: CN1CCN(c2ccc3nc(-c4ccc(OCCn5cc(CCCCCCc6cn(C[C@H]7O[C@@H](O[C@@H]8[C@@H](O)[C@H](N)C[C@H](N)[C@H]8O[C@H]8O[C@H](CN)[C@@H](O)[C@H](O)[C@H]8N)[C@H](O)[C@@H]7O[C@H]7O[C@@H](CN)[C@@H](O)[C@H](O)[C@H]7N)nn6)nn5)cc4)[nH]c3c2)CC1
Ans: 5.4

Q: Give a short answer stating reported ΔTm for CN1CCN(c2ccc3nc(-c4ccc(OCc5cn(Cn6cc(CCCCc7cn(C[C@H]8O[C@@H](O[C@@H]9[C@@H](O)[C@H](N)C[C@H](N)[C@H]9O[C@H]9O[C@H](CN)[C@@H](O)[C@H](O)[C@H]9N)[C@H](O)[C@@H]8O[C@H]8O[C@@H](CN)[C@@H](O)[C@H](O)[C@H]8N)nn7)nn6)nn5)cc4)[nH]c3c2)CC1 .
Ans: 2.5

Q: Quick one: give measured ΔTm for CN1CCN(c2ccc3nc(-c4ccc(OCCn5cc(COCc6cn(C[C@H]7O[C@@H](O[C@@H]8[C@@H](O)[C@H](N)C[C@H](N)[C@H]8O[C@H]8O[C@H](CN)[C@@H](O)[C@H](O)[C@H]8N)[C@H](O)[C@@H]7O[C@H]7O[C@@H](CN)[C@@H](O)[C@H](O)[C@H]7N)nn6)nn5)cc4)[nH]c3c2)CC1
Ans: 3

Data origin, for the record: ChEMBL document CHEMBL2429818
